tested on: Panc-1; assay: SRB cellular proliferation assay; assay type: cell-based, human; conditions: Homo sapiens, Panc-1 cells, mean ± SD (n = 3), read-out: IC50
measurement.name: IC50 (µg/mL)

Cc1ccc(S(=O)(=O)Nc2ccccc2C2=N/C(=C/c3ccc(Cl)cc3)C(=O)O2)cc1 [Compound 9e] :: 12.2
COc1cc(/C=C2/N=C(c3ccccc3NS(=O)(=O)c3ccc(C)cc3)OC2=O)cc(OC)c1OC [Compound 9d] :: 25.3
Cc1ccc(S(=O)(=O)Nc2ccccc2C2=N/C(=C/c3ccncc3)C(=O)O2)cc1 [Compound 9k] :: 19.9
Cc1ccc(S(=O)(=O)Nc2ccccc2C2=N/C(=C/c3ccco3)C(=O)O2)cc1 [Compound 9i] :: 16.1
Cc1ccc(S(=O)(=O)Nc2ccccc2C2=N/C(=C/c3ccccc3)C(=O)O2)cc1 [Compound 9a] :: 11.9
Cc1ccc(S(=O)(=O)Nc2ccccc2C2=N/C(=C/c3ccc(OCc4ccccc4)cc3)C(=O)O2)cc1 [Compound 9g] :: 29.3
COc1cccc2c1C(=O)c1c(O)c3c(c(O)c1C2=O)C[C@@](O)(C(=O)CO)C[C@@H]3O[C@H]1C[C@H](N)[C@H](O)[C@H](C)O1 [Doxorubicin, reference compound] :: 6.9
COc1ccc(OC)c(/C=C2/N=C(c3ccccc3NS(=O)(=O)c3ccc(C)cc3)OC2=O)c1 [Compound 9c] :: 15.1
COc1ccc(/C=C2/N=C(c3ccccc3NS(=O)(=O)c3ccc(C)cc3)OC2=O)cc1 [Compound 9b] :: 13.6
Cc1ccc(S(=O)(=O)Nc2ccccc2C2=N/C(=C/c3ccc([N+](=O)[O-])cc3)C(=O)O2)cc1 [Compound 9f] :: 12.6
Cc1ccc(S(=O)(=O)Nc2ccccc2C2=N/C(=C/c3cccs3)C(=O)O2)cc1 [Compound 9j] :: 16

----------
Measured MIC (Escherichia coli ATCC 10536)
measurement.name: MIC

Cc1ccc(S(=O)(=O)Nc2ccccc2C2=N/C(=C/c3ccccc3)C(=O)O2)cc1 [Compound 9a] :: 2 µg/mL
Cc1ccc(S(=O)(=O)Nc2ccccc2C2=N/C(=C/c3ccc(OCc4ccccc4)cc3)C(=O)O2)cc1 [Compound 9g] :: 2 µg/mL
Cc1ccc(S(=O)(=O)Nc2ccccc2C2=N/C(=C/c3ccc([N+](=O)[O-])cc3)C(=O)O2)cc1 [Compound 9f] :: 4 µg/mL
COc1ccc(OC)c(/C=C2/N=C(c3ccccc3NS(=O)(=O)c3ccc(C)cc3)OC2=O)c1 [Compound 9c] :: 4 µg/mL
Cc1ccc(S(=O)(=O)Nc2ccccc2C2=N/C(=C/c3ccco3)C(=O)O2)cc1 [Compound 9i] :: > 32 µg/mL
COc1ccc(/C=C2/N=C(c3ccccc3NS(=O)(=O)c3ccc(C)cc3)OC2=O)cc1 [Compound 9b] :: 2 µg/mL
CC1(C)S[C@@H]2[C@H](NC(=O)[C@H](N)c3ccc(O)cc3)C(=O)N2[C@H]1C(=O)O [Amoxycillin, reference compound] :: 0.5 µg/mL
COc1cc(/C=C2/N=C(c3ccccc3NS(=O)(=O)c3ccc(C)cc3)OC2=O)cc(OC)c1OC [Compound 9d] :: 4 µg/mL
Cc1ccc(S(=O)(=O)Nc2ccccc2C2=N/C(=C/c3ccc(Cl)cc3)C(=O)O2)cc1 [Compound 9e] :: 4 µg/mL
CO/N=C(\C(=O)N[C@@H]1C(=O)N2C(C(=O)O)=C(COC(C)=O)CS[C@H]12)c1csc(N)n1 [Cefotaxime, reference compound] :: 0.125 µg/mL
Cc1cc(NS(=O)(=O)c2ccc(N)cc2)no1 [Sulphamethoxazole, reference compound] :: 1 µg/mL
Cc1ccc(S(=O)(=O)Nc2ccccc2C2=N/C(=C/c3ccncc3)C(=O)O2)cc1 [Compound 9k] :: 16 µg/mL
Cc1ccc(S(=O)(=O)Nc2ccccc2C2=N/C(=C/c3cccs3)C(=O)O2)cc1 [Compound 9j] :: > 32 µg/mL

----------
tested on: Pseudomonas aeruginosae ATCC 47085; assay: MIC by agar dilution; type: cell-based, Pseudomonas aeruginosa; details: ATCC47085, 37 °C, 20 h, read-out: Minimum inhibitory concentration (MIC)
Assign labels as follows, please: yes (1) for MIC below 8 µg/mL; no (0) for MIC equal to or exceeding 8 µg/mL.

Cc1ccc(S(=O)(=O)Nc2ccccc2C2=N/C(=C/c3ccncc3)C(=O)O2)cc1 :: no (0)
Cc1ccc(S(=O)(=O)Nc2ccccc2C2=N/C(=C/c3cccs3)C(=O)O2)cc1 :: no (0)
CO/N=C(\C(=O)N[C@@H]1C(=O)N2C(C(=O)O)=C(COC(C)=O)CS[C@H]12)c1csc(N)n1 [Cefotaxime, reference compound] :: yes (1)
COc1ccc(OC)c(/C=C2/N=C(c3ccccc3NS(=O)(=O)c3ccc(C)cc3)OC2=O)c1 :: no (0)
Cc1ccc(S(=O)(=O)Nc2ccccc2C2=N/C(=C/c3ccco3)C(=O)O2)cc1 :: no (0)
Cc1ccc(S(=O)(=O)Nc2ccccc2C2=N/C(=C/c3ccc([N+](=O)[O-])cc3)C(=O)O2)cc1 :: yes (1)
Cc1cc(NS(=O)(=O)c2ccc(N)cc2)no1 [Sulphamethoxazole, reference compound] :: yes (1)
COc1ccc(/C=C2/N=C(c3ccccc3NS(=O)(=O)c3ccc(C)cc3)OC2=O)cc1 :: yes (1)
CC1(C)S[C@@H]2[C@H](NC(=O)[C@H](N)c3ccc(O)cc3)C(=O)N2[C@H]1C(=O)O [Amoxycillin, reference compound] :: yes (1)
Cc1ccc(S(=O)(=O)Nc2ccccc2C2=N/C(=C/c3ccc(OCc4ccccc4)cc3)C(=O)O2)cc1 :: no (0)
COc1cc(/C=C2/N=C(c3ccccc3NS(=O)(=O)c3ccc(C)cc3)OC2=O)cc(OC)c1OC :: no (0)

----------
tested on: Micrococcus spp. ATCC 10240
MIC values for the molecules below.
measurement.name: MIC

Cc1ccc(S(=O)(=O)Nc2ccccc2C2=N/C(=C/c3ccc([N+](=O)[O-])cc3)C(=O)O2)cc1 :: 2 µg/mL
Cc1ccc(S(=O)(=O)Nc2ccccc2C2=N/C(=C/c3ccc(Cl)cc3)C(=O)O2)cc1 :: 2 µg/mL
Cc1ccc(S(=O)(=O)Nc2ccccc2C2=N/C(=C/c3ccccc3)C(=O)O2)cc1 :: 4 µg/mL
Cc1ccc(S(=O)(=O)Nc2ccccc2C2=N/C(=C/c3ccc(OCc4ccccc4)cc3)C(=O)O2)cc1 :: 2 µg/mL
Cc1ccc(S(=O)(=O)Nc2ccccc2C2=N/C(=C/c3cccs3)C(=O)O2)cc1 :: 8 µg/mL
Cc1ccc(S(=O)(=O)Nc2ccccc2C2=N/C(=C/c3ccncc3)C(=O)O2)cc1 :: 2 µg/mL
CO/N=C(\C(=O)N[C@@H]1C(=O)N2C(C(=O)O)=C(COC(C)=O)CS[C@H]12)c1csc(N)n1 [Cefotaxime, reference compound] :: 0.25 µg/mL

----------
test system: Micrococcus spp. ATCC 10240
MIC values for the compounds below.
measurement.name: MIC

Cc1ccc(S(=O)(=O)Nc2ccccc2C2=N/C(=C/c3ccco3)C(=O)O2)cc1 [Compound 9i] :: 2 µg/mL
Cc1cc(NS(=O)(=O)c2ccc(N)cc2)no1 [Sulphamethoxazole, reference compound] :: 1 µg/mL
COc1cc(/C=C2/N=C(c3ccccc3NS(=O)(=O)c3ccc(C)cc3)OC2=O)cc(OC)c1OC [Compound 9d] :: 2 µg/mL
CC1(C)S[C@@H]2[C@H](NC(=O)[C@H](N)c3ccc(O)cc3)C(=O)N2[C@H]1C(=O)O [Amoxycillin, reference compound] :: 0.25 µg/mL
COc1ccc(/C=C2/N=C(c3ccccc3NS(=O)(=O)c3ccc(C)cc3)OC2=O)cc1 [Compound 9b] :: 1 µg/mL
COc1ccc(OC)c(/C=C2/N=C(c3ccccc3NS(=O)(=O)c3ccc(C)cc3)OC2=O)c1 [Compound 9c] :: 4 µg/mL

----------
melting point values for the compounds below.
measurement.name: melting point

Cc1ccc(S(=O)(=O)Nc2ccccc2C2=N/C(=C/c3ccc(Cl)cc3)C(=O)O2)cc1 :: 234 to 236 °C
Cc1ccc(S(=O)(=O)Nc2ccccc2C2=N/C(=C/c3ccc(OCc4ccccc4)cc3)C(=O)O2)cc1 :: 235 to 237 °C
Cc1ccc(S(=O)(=O)Nc2ccccc2C2=N/C(=C/c3ccc([N+](=O)[O-])cc3)C(=O)O2)cc1 :: 250 to 252 °C
Cc1ccc(S(=O)(=O)Nc2ccccc2C2=N/C(=C/c3ccco3)C(=O)O2)cc1 :: 191 to 193 °C
Cc1ccc(S(=O)(=O)Nc2ccccc2C2=N/C(=C/c3ccccc3)C(=O)O2)cc1 :: 214 to 216 °C
Cc1ccc(S(=O)(=O)Nc2ccccc2C2=N/C(=C/c3cccs3)C(=O)O2)cc1 :: 196 to 198 °C
COc1ccc(OC)c(/C=C2/N=C(c3ccccc3NS(=O)(=O)c3ccc(C)cc3)OC2=O)c1 :: 220 to 222 °C
Cc1ccc(S(=O)(=O)Nc2ccccc2C2=N/C(=C/c3ccncc3)C(=O)O2)cc1 :: 210 to 212 °C
COc1cc(/C=C2/N=C(c3ccccc3NS(=O)(=O)c3ccc(C)cc3)OC2=O)cc(OC)c1OC :: 230 to 232 °C
